meta.source: patent US6168939A

- measurement.target: endopeptidase produced by Lactobacillus helveticus (Lactobacillus helveticus)
- Construct: N-terminus […]
- Sequence (Q6UP05 1-643): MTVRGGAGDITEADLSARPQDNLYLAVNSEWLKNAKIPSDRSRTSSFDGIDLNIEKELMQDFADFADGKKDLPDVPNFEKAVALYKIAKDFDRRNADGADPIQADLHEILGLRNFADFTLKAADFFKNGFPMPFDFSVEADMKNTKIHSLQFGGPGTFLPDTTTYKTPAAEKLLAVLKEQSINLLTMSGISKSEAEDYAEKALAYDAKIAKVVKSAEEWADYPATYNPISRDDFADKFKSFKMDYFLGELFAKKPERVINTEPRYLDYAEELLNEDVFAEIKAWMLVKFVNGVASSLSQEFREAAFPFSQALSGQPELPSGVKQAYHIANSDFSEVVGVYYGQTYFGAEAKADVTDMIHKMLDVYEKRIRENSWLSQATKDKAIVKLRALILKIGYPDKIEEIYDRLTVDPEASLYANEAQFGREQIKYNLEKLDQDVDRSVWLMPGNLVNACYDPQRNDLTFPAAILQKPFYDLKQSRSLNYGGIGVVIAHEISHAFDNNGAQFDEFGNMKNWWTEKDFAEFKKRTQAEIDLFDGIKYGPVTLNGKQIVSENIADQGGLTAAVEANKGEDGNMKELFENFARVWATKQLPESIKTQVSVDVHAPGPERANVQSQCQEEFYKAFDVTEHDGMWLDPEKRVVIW
- assay.name: Substrate specificity: hydrolysis of substrates by the endopeptidase
- Format: biochemical
- Set-up: key: + represents that a substrate was hydrolyzed; - represents that a substrate was not hydrolyzed
- stated.conditions: 2 to 5 mM substrate, 50 mM HEPES pH 7.0, 30° C., 5.0 hrs
- Method: The substrate specificity of the endopeptidase of the present invention was determined. In 200 μl of 2 to 5 mM substrate in 50 mM HEPES buffer, pH 7.0, 10 μl of the endopeptidase solution of the present invention in 50 mM HEPES buffer, pH 7.0, at five μg/ml was added and incubated at 30° C. for 5.0 hrs. […] The hydrolysis was determined from the decrease of the peak area of the substrate and/or the appearance of a new peak(s) at 214 nm on the chromatogram.
Ends that are not written are not given here.
property.measured: Hydrolysis

Before answering, review these 5 worked examples.
substance	Hydrolysis
Pro-Lys-Gly-Gly (PKGG)	-
RPPGFSPFR [Bradykinin]	+
Gly-Pro-Gly-Gly (GPGG)	-
Angiotensin (DRVYIHPFHL; Angiotensin-1; UniProt P01019 25-34, looked up)	+
Pro-Gly-Lys-Ala-Arg (PGKAR)	-

For the substance Ala-Ala-Ala-Ala (AAAA) , what Hydrolysis is on record? +

Using the record for β-Casein, f203-209: β-Casein fragment 203-209, 7 amino acid residues (GPFPIIV; UniProt P02666 218-224, looked up, fragment) , report its Hydrolysis. +

Fill in the blank: the reported Hydrolysis of Gly-Pro-Arg-Pro (GPRP) is ____. -

// returns reported Hydrolysis for input Ala-Ala-Ala-Ala-Ala-Ala +

Endpoint output: Hydrolysis of Parathyroid hormone, human, f1-44: human parathyroid hormone fragment 1-44, 44 amino acid residues (SVSEIQLMHNLGKHLNSMERVEWLRKKLQDVHNFVALGAPLAPR; Parathyroid hormone; UniProt P01270 32-75, looked up, fragment) . Value? -

Look up Hydrolysis for this substance: β-Casein, f108-113: β-Casein fragment 108-113, 6 amino acid residues (EMPFPK; UniProt P02666 123-128, looked up, fragment) +

What measured Hydrolysis goes with Parathyroid hormone, human, f1-38: human parathyroid hormone fragment 1-38, 38 amino acid residues (SVSEIQLMHNLGKHLNSMERVEWLRKKLQDVHNFVALG; Parathyroid hormone; UniProt P01270 32-69, looked up, fragment) ? -

Recorded Hydrolysis for Ala-Ala-Ala-Ala-Ala , please? +

Value lookup for Hydrolysis; key = Parathyroid hormone, human, f13-34: human parathyroid hormone fragment 13-34, 22 amino acid residues (KHLNSMERVEWLRKKLQDVHNF; Parathyroid hormone; UniProt P01270 44-65, looked up, fragment) +
